Target: human ROCK1 catalytic domain (Homo sapiens)
Construct: GST; purchased Carna BioSciences 01-109
Assay: fluorescence coupling (TR-FRET) enzymatic assay, ROCK1
Format: biochemical
Settings: 4 nM enzyme, 4 μM ATP, 50 nM Ulight-CREBTide, one hour room temperature; read-out: ROCK1 IC50
Could you please report measured IC50 for the items listed next?

Record excerpt, results attached:
COc1cc(C#N)cc2c1CCN2S(=O)(=O)c1cccc2c(=O)[nH]ccc12: < 0.1 µM
CC(=O)Nc1cc(C#N)cc2c1CCN2S(=O)(=O)c1cccc2c(=O)[nH]cc(C)c12: < 0.1 µM
N#Cc1ccc2c(c1)N(S(=O)(=O)c1cc(Cl)cc3c(=O)[nH]ccc13)CC2: > 10 µM
CCc1cccc2c1CCN2S(=O)(=O)c1cccc2c(=O)[nH]ccc12: > 10 µM
N#Cc1cc2c(cn1)CCN2S(=O)(=O)c1cccc2c(=O)[nH]ccc12: 0.1 to 1 µM

Here are 3 compounds. What values of IC50 were reported for them?
1. Cc1c[nH]c(=O)c2cccc(S(=O)(=O)N3CCc4ncc(C#N)cc43)c12
2. CC1CN(S(=O)(=O)c2cccc3c(=O)[nH]ccc23)c2ccccc21 (centres unmarked)
3. CC(O)c1cccc2c1CCN2S(=O)(=O)c1cccc2c(=O)[nH]ccc12 (centres unmarked)

Result block:
0.1 to 1 µM
> 10 µM
1 to 10 µM

----------
Entries below carry reported IC50 on PKACα (PRKACA) (Homo sapiens).

Here are 4 compounds. What values of IC50 were reported for them?
1. O=c1[nH]ccc2c(S(=O)(=O)N3CCc4ccc(Cl)cc43)cc(Cl)cc12
2. N#Cc1cc2c(cn1)CCN2S(=O)(=O)c1cccc2c(=O)[nH]ccc12
3. Cc1ccc2c(c1)N(S(=O)(=O)c1cccc3c(=O)[nH]ccc13)CC2
4. COc1cc(C#N)cc2c1CCN2S(=O)(=O)c1cccc2c(=O)[nH]ccc12

Result block:
> 10 µM
> 10 µM
> 10 µM
1 to 10 µM

Here are 2 compounds. What values of IC50 were reported for them?
1. CC(C)c1cccc2c1CCN2S(=O)(=O)c1cccc2c(=O)[nH]ccc12
2. CNc1cc(C#N)cc2c1CCN2S(=O)(=O)c1cccc2c(=O)[nH]cc(C)c12

Result block:
1: > 10 µM; 2: > 10 µM

----------
Target: human ROCK2 enzyme kinase domain (Homo sapiens, UniProt O75116)
Sequence (O75116 1-553): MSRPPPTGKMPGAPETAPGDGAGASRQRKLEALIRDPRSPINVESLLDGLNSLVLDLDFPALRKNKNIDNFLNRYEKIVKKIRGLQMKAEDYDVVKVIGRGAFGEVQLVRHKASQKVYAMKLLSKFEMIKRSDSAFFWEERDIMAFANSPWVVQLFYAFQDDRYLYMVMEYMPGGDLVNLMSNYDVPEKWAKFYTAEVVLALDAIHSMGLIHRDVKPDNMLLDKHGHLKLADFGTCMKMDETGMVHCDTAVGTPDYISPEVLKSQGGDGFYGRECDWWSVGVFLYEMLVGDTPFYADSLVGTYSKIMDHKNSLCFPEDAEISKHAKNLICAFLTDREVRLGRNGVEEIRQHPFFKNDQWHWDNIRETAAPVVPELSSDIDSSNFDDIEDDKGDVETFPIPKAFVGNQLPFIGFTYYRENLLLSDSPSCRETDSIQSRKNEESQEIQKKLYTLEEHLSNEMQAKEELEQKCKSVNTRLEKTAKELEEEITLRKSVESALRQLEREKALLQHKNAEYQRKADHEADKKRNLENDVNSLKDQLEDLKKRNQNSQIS
Experimental Endpoint: IC50

N#Cc1cc(N)c2c(c1)N(S(=O)(=O)c1cccc3c(=O)[nH]cc(Cl)c13)CC2: < 100 nM

Here are 3 molecules. What values of IC50 were reported for them?
1. CCNc1cc(C#N)cc2c1CCN2S(=O)(=O)c1cccc2c(=O)[nH]cc(C)c12
2. N#Cc1cnc2c(c1)N(S(=O)(=O)c1cccc3c(=O)[nH]ccc13)CC2
3. N#Cc1cc2c(cn1)CCN2S(=O)(=O)c1cccc2c(=O)[nH]ccc12

Result block:
1. 100 to 1000 nM
2. 100 to 1000 nM
3. 100 to 1000 nM

----------
Biological target: human ROCK1 catalytic domain (Homo sapiens, UniProt Q13464)
Construct: GST; purchased Carna BioSciences 01-109
Sequence (Q13464 1-477): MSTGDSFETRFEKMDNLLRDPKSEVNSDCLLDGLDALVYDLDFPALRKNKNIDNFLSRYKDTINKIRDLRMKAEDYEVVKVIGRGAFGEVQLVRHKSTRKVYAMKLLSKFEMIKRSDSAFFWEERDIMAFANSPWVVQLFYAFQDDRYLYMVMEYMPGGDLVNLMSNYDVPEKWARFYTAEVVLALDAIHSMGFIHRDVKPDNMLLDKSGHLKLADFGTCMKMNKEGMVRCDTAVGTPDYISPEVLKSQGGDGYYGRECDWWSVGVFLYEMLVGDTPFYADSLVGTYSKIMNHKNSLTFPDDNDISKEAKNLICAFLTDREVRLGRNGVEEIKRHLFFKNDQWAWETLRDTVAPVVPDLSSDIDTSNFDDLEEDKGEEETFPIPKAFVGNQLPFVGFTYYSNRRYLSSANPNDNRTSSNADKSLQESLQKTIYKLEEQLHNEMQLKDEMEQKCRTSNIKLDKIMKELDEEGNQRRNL
Test: fluorescence coupling (TR-FRET) enzymatic assay, ROCK1
Format: biochemical
Details: 4 nM enzyme, 4 μM ATP, 50 nM Ulight-CREBTide, one hour room temperature; read-out: ROCK1 IC50
Experimental Endpoint: IC50

Record excerpt, results attached:
Cc1cnc(O)c2cccc(S(=O)(=O)N3CCc4ccc(Cl)cc43)c12: 1 to 10 µM
CC(=O)Nc1cc(C#N)cc2c1CCN2S(=O)(=O)c1cccc2c(=O)[nH]cc(Cl)c12: < 0.1 µM
O=c1[nH]ccc2c(S(=O)(=O)N3CCc4c3cccc4C(F)(F)F)cccc12: > 10 µM

Here are 3 molecules. What values of IC50 were reported for them?
1. Cc1cc(C#N)cc2c1CCN2S(=O)(=O)c1cccc2c(O)ncc(C)c12
2. O=c1[nH]ccc2c(S(=O)(=O)N3CCc4cc(O)ccc43)cccc12
3. O=S(=O)(c1cccc2c(O)ncc(F)c12)N1CCc2ccc(Cl)cc21

Result block:
["0.1 to 1 µM", "> 10 µM", "> 10 µM"]
